Test system: human embryonic stem cell derived neural stem cells (NSCs)
Assay Method Text: Neural Stem Cell Proliferation Assay (neurogenesis assay, ATP levels by CellTiterGlo)
Assay type: cell-based
Recorded Conditions: 96 h, compound concentration at which 150% activity of control (100%) is reached, NSC proliferation by ATP level after 4 days incubation, dose response 8 μM to 8 nM
# label = criterion met if EC (150% of control) < 0.4 µM else criterion not met

Worked examples, 6 compounds total:
Cc1c2n(c3c(-c4ccc(N)nc4)cc(C#N)cc13)CCNC2=O: criterion not met
Cc1c2n(c3c(-c4ccc(S(C)(=O)=O)cc4)cc(C#N)cc13)CCNC2=O: criterion met
Cc1c2n(c3c(-c4ccnc(F)c4)cc(C#N)cc13)CCNC2=O: criterion met
Cc1c2n(c3c(-c4ccncc4)cc(Cl)cc13)CCNC2=O: criterion met
N#Cc1cc(-c2cc(F)cc(F)c2)c2c(c1)cc1n2CCNC1=O: criterion met
O=C1NCCn2c1cc1c(F)c(F)cc(-c3ccc(F)cc3)c12: criterion not met

Q) Hello, I'm reviewing records and need to know if EC (150% of control) of N#Cc1cc(-c2ccc(F)c(F)c2F)c2c(c1)cc1n2CCCNC1=O is below 0.4 µM. Could you check?
A) criterion met

Q) Hello, I'm reviewing records and need to know if EC (150% of control) of COc1cc(-c2ccc(Cl)cc2)c2c(c1)cc1n2CCNC1=O is below 0.4 µM. Could you check?
A) criterion not met

* * *

Result Type: melting point (°C)
Numbers only here, please. The scale is °C.

# example entries with known answers
Cc1c2n(c3c(-c4ccncc4)cc(F)cc13)CCNC2=O: 290
N#Cc1cc(-c2ccc(F)cc2F)c2c(c1)cc1n2CCCNC1=O: 216.5
Cc1c2n(c3c(-c4ccc(Cl)cc4F)cc(F)cc13)CCNC2=O: 221
Cc1c2n(c3c(-c4ccc(Cl)c(C(F)(F)F)c4)cc(F)cc13)CCNC2=O: 240

Q) Look up melting point: O=C1NCCn2c1cc1cc(F)c(F)c(-c3ccc(Cl)cc3)c12
A) 332.5

Q) Look up melting point: COc1ncc(-c2cc(Cl)cc3c(C)c4n(c23)CCNC4=O)cn1
A) 270.5

Q) Look up melting point: Cc1cc(-c2cc(C#N)cc3cc4n(c23)CCCNC4=O)ccc1F
A) 223.5

Q) Look up melting point: N#Cc1ccc(-c2cc(C#N)cc3cc4n(c23)CCCNC4=O)cc1
A) 257

Q) Look up melting point: O=C1NCCCn2c1cc1cc(Cl)cc(-c3ccc(F)cc3)c12
A) 260

Q) Look up melting point: Cc1c2n(c3c(-c4cc(F)c(F)c(F)c4)cc(F)cc13)CCNC2=O
A) 250

Q) Look up melting point: N#Cc1cccc(-c2cc(C#N)cc3cc4n(c23)CCNC4=O)c1
A) 253

Q) Look up melting point: Cc1ccc(-c2cc(C#N)cc3c(C)c4n(c23)CCNC4=O)cc1F
A) 255

Q) Look up melting point: Cc1c2n(c3c(-c4cccc(C#N)c4)cc(Cl)cc13)CCNC2=O
A) 199

Q) Look up melting point: O=C1NCCn2c1cc1cc(F)cc(-c3ccncc3)c12
A) 323.5

Q) Look up melting point: Cc1ccc(-c2cc(Cl)cc3c(C)c4n(c23)CCNC4=O)cc1
A) 251.5

Q) Look up melting point: Cc1ccc(-c2cc(F)cc3cc4n(c23)CCCNC4=O)cc1
A) 258.5

Q) Look up melting point: Cc1c2n(c3c(-c4ccccc4)cc(Cl)cc13)CCNC2=O
A) 230.5

Q) Look up melting point: CN1CCn2c(cc3cc(F)cc(-c4ccc(F)cc4)c32)C1=O
A) 212

Q) Look up melting point: Cc1c2n(c3c(-c4ccc(CO)cc4)cc(Cl)cc13)CCNC2=O
A) 211

Q) Look up melting point: CC(C)(C)c1ccc(-c2cc(C#N)cc3cc4n(c23)CCNC4=O)cc1
A) 300

Q) Look up melting point: Cc1c2n(c3c(-c4ccnc(Cl)c4)cc(Cl)cc13)CCNC2=O
A) 270

Q) Look up melting point: O=C1NCCCn2c1cc1cc(F)c(F)c(-c3ccc(F)cc3)c12
A) 223.5

Q) Look up melting point: C[C@@H]1CNC(=O)c2cc3cc(F)cc(-c4ccncc4)c3n21
A) 294.5

Q) Look up melting point: Cc1c2n(c3c(-c4ccc(OC(F)(F)F)cc4)cc(C#N)cc13)CCCNC2=O
A) 218

Q) Look up melting point: Cc1c2n(c3c(-c4ccc(C#N)cc4)cc(F)cc13)CCNC2=O
A) 295

Q) Look up melting point: COc1ccc(-c2cc(Cl)cc3cc4n(c23)CCCNC4=O)cc1
A) 218

Q) Look up melting point: Cc1c2n(c3c(-c4ccc(N(C)C)nc4)cc(Cl)cc13)CCNC2=O
A) 248

Q) Look up melting point: Cc1c2n(c3c(-c4ccccc4)cc(C#N)cc13)CCNC2=O
A) 253

Q) Look up melting point: O=C1NCCn2c1cc1cc(F)cc(-c3ccc(C(F)(F)F)cc3)c12
A) 346

Q) Look up melting point: Cc1ccc(-c2cc(C#N)cc3c(C)c4n(c23)CCNC4=O)cc1
A) 277
